We begin with a simple list: items and their reported Activity (BACE1 inhibition %).
tested.target: recombinant human BACE-1 (rhBACE-1) (Homo sapiens)
Construct: expressed as only an extracellular region (amino acid 1-460 residues) of recombinant human β-secretase; His tag (C); purchased R&D systems (Minneapolis, Minn.); host or cells: murine myeloma cell line NS0
Sequence (P56817 22-460 limits assumed): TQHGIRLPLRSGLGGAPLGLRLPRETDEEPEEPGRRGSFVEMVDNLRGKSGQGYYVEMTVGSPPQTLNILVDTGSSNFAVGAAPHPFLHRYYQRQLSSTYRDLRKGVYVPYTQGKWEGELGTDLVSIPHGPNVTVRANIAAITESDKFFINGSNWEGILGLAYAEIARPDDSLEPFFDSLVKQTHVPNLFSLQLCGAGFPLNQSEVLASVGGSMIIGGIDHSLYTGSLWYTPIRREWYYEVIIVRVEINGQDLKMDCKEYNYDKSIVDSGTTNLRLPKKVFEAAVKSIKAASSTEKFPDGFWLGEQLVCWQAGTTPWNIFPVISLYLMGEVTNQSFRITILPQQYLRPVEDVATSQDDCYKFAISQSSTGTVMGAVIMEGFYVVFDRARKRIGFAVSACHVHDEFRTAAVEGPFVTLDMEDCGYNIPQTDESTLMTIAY
assay.remarks: BACE1 inhibitory activity, reverse phase HPLC quantitation of N-terminal fragment of fluorogenic substrate
Type: biochemical
particulars: 1 μL of inhibitor solution in DMSO (100 μM) in 50 μL reaction; MES buffer pH 5.0; 37° C., 60 minutes
Numbered stars: 1 amine (or outer) side, 2 acyl side, 3 side chain; on linkers, the order of the positions; unused ones are H or OH. Square brackets hold non-standard residues; d marks the D form. Apns = amino acid residue of (2S,3S)-3-amino-2-hydroxy-4-phenylbutanoic acid, O=C([C@@H](O)[C@H](Cc1ccccc1)N[*:1])[*:2]; β3hPhe(2R-OH) = O=C([C@H](O)[C@H](Cc1ccccc1)N[*:1])[*:2]
# value in %; strip the unit string

Here are 3 substances together with their reported answers.
[[record]]
substance = "H-Glu-Val-Leu-Pns-Ala-Ala-Glu-Phe-OH (H-EVL[β3hPhe(2R-OH)]AAEF-OH; SMILES CC(C)C[C@H](NC(=O)[C@@H](NC(=O)[C@@H](N)CCC(=O)O)C(C)C)C(=O)N[C@@H](Cc1ccccc1)[C@@H](O)C(=O)N[C@@H](C)C(=O)N[C@@H](C)C(=O)N[C@@H](CCC(=O)O)C(=O)N[C@@H](Cc1ccccc1)C(=O)O) [Example 13]"
tested_target = "recombinant human BACE-1 (rhBACE-1) (Homo sapiens)"
unit_of_measure = "%"
observed = 53.71

[[record]]
substance = "β-ODap-Val-Leu-Pns-Asp-Ala-Gly-Phe-OH ({β‑ODap}-VL[β3hPhe(2R-OH)]DAGF-OH) [Example 63]"
tested_target = "recombinant human BACE-1 (rhBACE-1) (Homo sapiens)"
unit_of_measure = "%"
observed = 96.66

[[record]]
substance = "H-Glu-Val-Leu-Pns-Asp-Ala-Glu-OH [Example 32]"
tested_target = "recombinant human BACE-1 (rhBACE-1) (Homo sapiens)"
unit_of_measure = "%"
observed = 71.60


Would you kindly look at the next entry?
Per the records, this substance ( H-Glu-Val-Leu-Apns-Asp-Ala-Glu-Phe-OH ({H2N-Glu-Val-Leu-Apns}-DAEF-OH; SMILES CC(C)C[C@H](NC(=O)[C@@H](NC(=O)[C@@H](N)CCC(=O)O)C(C)C)C(=O)N[C@@H](Cc1ccccc1)[C@H](O)C(=O)N[C@@H](CC(=O)O)C(=O)N[C@@H](C)C(=O)N[C@@H](CCC(=O)O)C(=O)N[C@@H](Cc1ccccc1)C(=O)O) [Example 18] ) has Activity (BACE1 inhibition %) equal to 53.38
